growth values for the compounds below.
Test system: MOLT-4 leukemia
experiment description: NCI-60 one-dose screen, 48 h (100 = growth as untreated, 0 = no growth, -100 = all killed)
experimental setup: 10 µM unless noted
Procedure: Growth inhibition of the MOLT-4 human tumor cell line is measured as a screen for anti-cancer activity. Cells are grown in 96 well plates and exposed to the test compound for 48 hours. Compounds are tested at a single concentration, which is 10^-5 M for most compounds. The reported endpoint is percent growth (GI% or GIPRCNT), where numbers from 0 - 100% represent growth inhibition, and numbers from -100% - 0 represent cell death. For example, a value of 40 represents 60% growth inhibition. […]
The panel holds about 83,000 compounds, 20% with a hit somewhere; the sample as a whole holds those more often.
Hi! Could you send only the number? It should be in %, unit omitted.

Answered cases to consult:
O=C(OCCBr)c1ccc(Cl)c([N+](=O)[O-])c1
83.7
Cc1c(C(N)=O)sc2nc(SCC(=O)Nc3ccc(Cl)cc3)n(-c3ccccc3)c(=O)c12
156
CC(C)[C@]12O[C@H]1[C@@H]1O[C@]13[C@]1(O[C@H]1C[C@H]1C4=C(CC[C@@]13C)C(=O)OC4)[C@@H]2OC(=O)CN(C)C
-11.7
C/C(=C\CCc1ccsc1)CC/C=C(\C)CCCN1CCC(CO)CC1
-22.2

**Q:** What value of growth has been recorded for this entry: `COc1ccc2c(c1)C(=O)c1c-2c(OCCN(C)C)nc2cc(OC)ccc12`
**A:** -7.63

**Q:** What measured growth goes with `CCCOc1ccc2c(c1)CC[C@@H]1[C@@H]2CC[C@@]2(C)[C@H]1CC[C@]2(C)O` ?
**A:** 75.9

**Q:** What value of growth has been recorded for this entry: `O=C(c1ccccc1)c1ccco1`
**A:** 91.7

**Q:** Which growth value is on record for `COc1ccc(-c2nc3sccn3c2-c2ccnc(S(C)(=O)=O)n2)cc1` ?
**A:** 87.2

**Q:** I have this compound here, `COc1ccc2[nH]cc(/C=C3/C(=O)Nc4ccc(Cl)cc43)c2c1` , and I need its recorded growth.
**A:** 39.9

**Q:** Recorded growth of `Nc1nc(SCC2(CCl)COC2)c2[nH]cnc2n1` , please.
**A:** 89

**Q:** Would you kindly share the measured growth for `c1ccc2c(c1)[nH]c1c2cc[n+]2cc3c(cc12)CCCC3` ?
**A:** 2.41

**Q:** Requested read-out: growth. Entry: `Oc1ccc(-c2nn(-c3ccccc3)cc2-c2nc3ccccc3s2)cc1`
**A:** 87.8

**Q:** Please report the recorded growth for `Cc1nc2cc(NC(=O)CN3CCN(CCN4C(=O)c5cccc6cccc(c56)C4=O)CC3)ccc2s1` .
**A:** 9.64

**Q:** Requested read-out: growth. Entry: CO[C@H]1CC(O[C@@H]2/C(C)=C/C[C@@H]3C[C@@H](C[C@]4(CC[C@H](C)[C@@H](C5CCCCC5)O4)O3)OC(=O)[C@@H]3C=C(C)/C(=N/O)[C@H]4OC/C(=C\C=C\[C@@H]2C)[C@]43O)O[C@@H](C)C1O (stereo partly specified)
**A:** -36.7

**Q:** Consider the compound `COC(=O)CCC1=C(CC(=O)OC)C(C)=N/C1=C\c1[nH]c(-c2ccc[nH]2)cc1OC` and give its measured growth.
**A:** -6.53

**Q:** # get_value(readout='growth', item= `COc1ccc2c(c1)C(=O)c1c-2c(OCCCN(C)C)nc2cc(Br)ccc12` )
**A:** 21.1

**Q:** Entry `COc1ccc(-c2cc(Cc3cccs3)c(=O)n(Cn3ccc4ccccc43)n2)cc1` has what growth?
**A:** 97.5

---

Tested on: NCI-H23 lung
experiment description: NCI-60 one-dose screen, 48 h (100 = growth as untreated, 0 = no growth, -100 = all killed)
experimental setup: 10 µM unless noted
This is part of a sample that, as a whole, favours compounds with a hit. Of some 83,000 tested, about 20% had one in any assay.
Friendly reminder: growth below 90% is T, at or above is F.

**Q:** Is 90% strictly greater than the molecule's reported growth? molecule: `CCN(CC)CCOc1ccccc1-n1c(C)ccc1-c1ccccc1`
**A:** F

**Q:** Strictly below 90% in growth? `c1ccc(-c2nn[nH]n2)c(-c2ccc(CN3CCN(c4nsc5ccccc45)CC3)cc2)c1`
**A:** T

**Q:** Please check: growth for `CCCCc1nc(Cl)c(CO)n1Cc1ccc(-c2ccccc2-c2nn[nH]n2)cc1` , strictly under 90% or not?
**A:** F

**Q:** Lab note: growth threshold 90%. Does this molecule come in strictly under it? `C=C(C)[C@H]1CC/C(C)=C/CC[C@]2(C)O[C@H]2CC/C(COC(C)=O)=C\C1=O`
**A:** F

**Q:** Given `COc1cc2c(cc1OCCCCCn1c(-c3ccc(OCc4ccccc4)cc3)nc3cc(N4CCOCC4)ccc31)N=C[C@@H]1CCCN1C2=O` , is recorded growth strictly lower than 90%?
**A:** T

---

System: RXF 393 renal
experiment description: NCI-60 one-dose screen, 48 h (100 = growth as untreated, 0 = no growth, -100 = all killed)
experimental setup: 10 µM unless noted
Compounds without any hit were thinned out: in the full panel of roughly 83,000, 20% have a hit.
recorded endpoint: growth (%)
Report only the number, with the unit % understood.

**Q:** I am curious: what growth value has been reported for `Cc1nc(N)[nH]c(=O)c1C` ?
**A:** 104

**Q:** Consider the compound `CC(=O)n1c2ccccc2c2ccccc21` and give its measured growth.
**A:** 144

**Q:** Item under review: `CC(C)[O-].CC(C)[O-].CN(CCN(C)Cc1cc(F)cc(F)c1[O-])Cc1cc(F)cc(F)c1[O-].[Ti+4]` . Reported growth?
**A:** -79.1

**Q:** What value of growth has been reported for the following compound? `COc1cc(NC(=O)c2cc3ccccc3cc2O)c(OC)cc1Cl`
**A:** 20.9

**Q:** Tell me the measured growth of CC1CC(C)/C(=N/NC(N)=O)C(C(O)CC2CCC(=O)NC2=O)C1 (stereo unspecified) , please.
**A:** 38.2

**Q:** Which growth is reported for this compound? `COc1cc2c(cc1OCCCOc1ccc(-c3cc4ccccc4c4ccccc34)cc1)N=C[C@@H]1CCCN1C2=O`
**A:** -49.6

**Q:** growth for `COc1ccc2[nH]c(-c3ccccc3)cc2c1` ?
**A:** 100

**Q:** GET /values?readout=growth&item= O=C(/C=C/c1cccnc1)NCCCCC1CCCN(C(=O)c2ccccc2)C1 (stereo unspecified)
**A:** 109

---

System: UO-31 renal
experiment description: NCI-60 one-dose screen, 48 h (100 = growth as untreated, 0 = no growth, -100 = all killed)
experimental setup: 10 µM unless noted
About 83,000 compounds went through this panel and 20% of them were active in at least one assay; those are over-represented in the sample as a whole. Activity calls are given as the source filed them. Rule for the calls: active = growth percent below 10; inactive = the rest.
Reported growth by item:

Past entries and their recorded results:
COc1cccc(-c2nnc(N)o2)c1
97.1% (inactive)
Cc1ccc2c(c1)C(=O)/C(=C/c1ncc([N+](=O)[O-])n1C)O2
-39.7% (active)
Cc1ccc(NC(=O)CSc2nnc3n(Cc4ccccc4)c(=O)c4c(C)c(C(N)=O)sc4n23)cc1
81.9% (inactive)
CCCCC1Nc2nc(SC)n(C)c(=O)c2CN(Cc2ccccc2)C1=O (stereo unspecified)
72.2% (inactive)

# input for lookup
**Q:** I'm curious: which growth was measured for CC1CC(C)/C(=N/NC(N)=O)C(C(O)CC2CCC(=O)NC2=O)C1 (stereo unspecified) tested on UO-31 renal?
**A:** 15.9% (inactive)

---

Test system: HS 578T breast
experiment description: NCI-60 one-dose screen, 48 h
experimental setup: 10 µM unless noted
About 83,000 compounds went through this panel and 20% of them were active in at least one assay; those are over-represented in the sample as a whole. Activity calls are given as the source filed them. The calls were made as follows: active = growth percent below 10; inactive = the rest.
Give one outcome, nothing more. List: active, inactive

CN(C)c1ccc(/C=C\c2ccnc3ccccc23)cc1
inactive
CCS(=O)(=O)OCCCl
inactive
ClC1C2CC(c3ccccc32)C1Cl (stereo unspecified)
inactive
C=C(C[C@@](O)(C(=O)Oc1ccccc1)C(=O)C1CCCCC1)c1ccccc1
inactive
CCOC(=O)/C(=C/c1ccccc1)C(=O)c1ccccc1
inactive
COc1ccc(Nc2nccc(N3CCN(c4c5ccc(Cl)cc5nc5ccc(OC)cc45)CC3)n2)cc1
inactive
O=C(/C=C/c1cccnc1)/C=C/c1cccnc1
active
COc1cc(/C=C/C(=O)Nc2ccc3c(c2)/C(=C\c2cccn2C)C(=O)N3)cc(OC)c1OC
active

**Q:** Please indicate how the test categorized `Cc1ccc(NC(=O)Nc2ccc(-c3cccnc3)cc2N2CCC(CO)CC2)cc1` .
**A:** inactive

**Q:** In this assay, the call recorded for `CC(=O)Nc1ccc2c(c1)Cc1c(F)c(F)c(F)c(F)c1-2` was what?
**A:** inactive
